Here, each record is paired with measured herbicidal effect rating, CYPSE data.
Tested on: Cyperus serotinus, Rottb.
assay: Preemergence weed control under flooded paddy conditions, CYPSE (Flatsedge); further: meaning of each grade not given here
Assay type: in vivo
setup_conditions: 0.2500 kg/ha, preemergence, rated three to four weeks after treatment

{"compound": "COC(=O)COc1c(C)cc(C)cc1-c1nsc2ccc(-n3c(=O)cc(C(F)(F)F)n(C)c3=O)cc12 [Example 26]", "study_system": "Cyperus serotinus, Rottb.", "herbicidal effect rating, CYPSE": 9.0}
{"compound": "CCc1ccc(OC)c(-c2nsc3ccc(-n4c(=O)cc(C(F)(F)F)n(C)c4=O)cc23)c1 [Example 45]", "study_system": "Cyperus serotinus, Rottb.", "herbicidal effect rating, CYPSE": 9.0}
{"compound": "Cc1ccc(OCC(=O)OC(C)(C)C)c(-c2nsc3ccc(-n4c(=O)cc(C(F)(F)F)n(C)c4=O)cc23)c1 [Example 68]", "study_system": "Cyperus serotinus, Rottb.", "herbicidal effect rating, CYPSE": 7.0}

meta.source: patent EP0908457B1
